assay: Peptide stability in simulated intestinal fluid (SIF); type: in vitro ADME; conditions: pig, simulated intestinal fluid (SIF) with porcine pancreatin; 4 h, 37 °C, pH 6.8, porcine pancreatin 10 g/L, 10 µM; read-out: SIF (% remaining 4 h)
MEASUREMENT_KIND: remaining at 4 h, 10 µM
Form entry: enter the amount, then its unit.

Fill blank: measured remaining at 4 h, 10 µM of the compound CC(C)C[C@]1(C)NC(=O)[C@H](Cc2ccc3ccccc3c2)NC(=O)[C@H](Cc2ccc(OCCN)cc2)NC(=O)[C@@H]2CCNC(=O)CC[C@H](NC(=O)[C@H](CO)NC(=O)Cc3ccc(cc3)CNC(=O)CC[C@@H](C(=O)N[C@@H](CCN)C(=O)N[C@@H](Cc3cn(C)cn3)C(N)=O)NC1=O)C(=O)N[C@@H](Cc1c[nH]c3ccccc13)C(=O)N[C@@H](CCC(N)=O)C(=O)N2 [Compound 14] is ____.
75%
